The reported measurements were obtained from patent US20240383852A1.

Target: SARS-CoV-2 PLpro (Severe acute respiratory syndrome coronavirus 2)
Construct: containing 60 nM papain-like protease
Assay: biochemical
Conditions: 60 nM papain-like protease, 50 μM Z-RLRGG-AMC, pH 7.5, 37° C.; read-out: SARS-CoV-2 PLpro IC50
pIC50: −log10 of the molar value.
Quick list: pIC50 per entry.

// below: answered compounds
Cc1ccc(N2CCN(C)CC2)cc1C(=O)N[C@H](C)c1cccc(N2CCN(CCC(=O)O)CC2)c1 | > 5.00
CNC(=O)CCc1cccc([C@@H](C)NC(=O)c2cc(N3CCN(C)CC3)ccc2C)c1 | > 5.00
COc1cc(-c2cc(C(=O)N(C)C)n(C)c2)cc([C@@H](C)NC(=O)c2cc(N3CCN(C)CC3)ccc2C)c1 | > 5.70
Cc1ccc(N2CCN(C)CC2)cc1C(=O)N[C@H](C)c1cccc(-c2cccc(C(=O)NCCN)c2)c1 | > 5.70
C[C@@H](NC(=O)c1cccc(C2CCN(CCS(=O)(=O)c3ccccc3)CC2)c1)c1cccc2ccccc12 | < 4.00

Summary: `C[C@@H](NC(=O)c1cc(N2CCNCC2)ccc1Cl)c1cccc2ccccc12` , SARS-CoV-2 PLpro (Severe acute respiratory syndrome coronavirus 2), pIC50 = > 5.70

Summary: `Cc1ccc(N2CCN(C)CC2)cc1C(=O)N[C@H](C)c1cccc(-c2ccc(Cl)cc2)c1` , SARS-CoV-2 PLpro (Severe acute respiratory syndrome coronavirus 2), pIC50 = > 5.70

Summary: `COc1ccc([C@@H](C)NC(=O)c2cc(N3CCN(C)CC3)ccc2C)cc1-c1nccs1` , SARS-CoV-2 PLpro (Severe acute respiratory syndrome coronavirus 2), pIC50 = > 5.70
